Values were extracted from PubChem BioAssay AID844.

# Test system: MRP1 cells, doxorubicin viability shift, 10 uM compound
# Method Summary: viability protection against doxorubicin, MRP-1 line – cell-based, doxorubicin EC50 shift, dose response (AID 844)
Recorded Metric: fold increase in Dox EC50

[
  {
    "Compound": "Fc1ccc(N2CCN(c3ncnc4c3nnn4Cc3ccccc3Cl)CC2)cc1",
    "Numeric Value": 0.86
  },
  {
    "Compound": "COC(=O)/C(=C/Nc1ccc(O)cc1)[N+](=O)[O-]",
    "Numeric Value": 0.21
  },
  {
    "Compound": "COc1cc(C2NC(=O)NC(C)=C2C(=O)OCc2ccc(C)cc2)cc(OC)c1O (configuration not stated)",
    "Numeric Value": 0.68
  },
  {
    "Compound": "CCOC(=O)c1ccc(Oc2nc(NC(C)(C)C)nc(N(C)C)n2)cc1",
    "Numeric Value": 0.82
  },
  {
    "Compound": "O=C(COc1nsnc1N1CCOCC1)N/N=C/c1ccccc1O",
    "Numeric Value": 0.26
  },
  {
    "Compound": "Cc1ccc(N2C(=O)C3C(c4ccccc4)(C2=O)C3(c2ccccc2)c2ccccc2)cc1 (configuration not stated)",
    "Numeric Value": 0.22
  },
  {
    "Compound": "CCc1nnc(NC(=O)C2COc3ccccc3O2)s1 (configuration not stated)",
    "Numeric Value": 1.1
  },
  {
    "Compound": "Cc1ccc2nc(/N=C(\\N)NC(=O)N3c4ccccc4Sc4ccccc43)nc(C)c2c1",
    "Numeric Value": 1.94
  },
  {
    "Compound": "CCOC(=O)c1c(-c2cccc([N+](=O)[O-])c2)csc1NC(=O)C1CCCCC1",
    "Numeric Value": 0.34
  },
  {
    "Compound": "COC(=O)C1=C(C)NC(C)=C(C(=O)OC)C1c1ccccc1OCc1c(C)no[n+]1[O-]",
    "Numeric Value": 0.98
  },
  {
    "Compound": "COC(=O)CC1SC(=O)NC1=O (configuration not stated)",
    "Numeric Value": 0.9
  },
  {
    "Compound": "CC(=O)NN1C(=O)/C(=C\\c2ccc(C)cc2)SC1=S",
    "Numeric Value": 1.47
  }
]
